Consider the following compounds; for each one, report its growth.
system: TK-10 renal; test: NCI-60 one-dose screen, 48 h (100 = growth as untreated, 0 = no growth, -100 = all killed); settings: 10 µM
About 83,000 compounds went through this panel and 20% of them were active in at least one assay; those are over-represented in the sample as a whole.
Give bare numbers, in %.

Some solved entries appear below for comparison.
> print(dat)
                                   compound  endpoint.value
1  C=CC(=O)Nc1nc(-c2cccc(NS(=O)(=O)c3cccc4c(N(C)C)cccc34)c2)cs1           -76.9
2  CCOP(=O)(OCC)O[C@H]1CC[C@]2(C)[C@H]3CC[C@@H]4[C@@H]([C@](C)(O)CCC=C(C)C)CC[C@@]4(C)[C@]3(C)CC[C@H]2C1(C)C            36.6
3  CCOC(=O)C1=C(N)N(c2ccc(Cl)cc2)C2=C(C(=O)CC(C)(C)C2)C1c1ccc(N2CCOCC2)cc1 (stereo not drawn)              98
4  COc1ccc(OC)c(/C=N/NC(=O)c2ccc3nc(-c4ccc(Cl)cc4)[nH]c3c2)c1            89.1
5   O=C(Nc1cc(Cl)cc(Cl)c1)Nc1cc(Cl)cc(Cl)c1           0.158

Each compound below has a reported value. Please supply its growth.
1. CCOC(=O)C1NN(c2ccc(S(N)(=O)=O)cc2)c2nc3nc(-c4cccs4)cc(-c4cccs4)c3c(=O)n21 (stereo not drawn)
2. N#Cc1ccc(-c2nn(-c3ccc(C(=O)O)cc3)cc2CNc2cccc(Br)c2)cc1
3. O=C(c1ccc([N+](=O)[O-])c([N+](=O)[O-])c1O)n1[nH]c(=O)c2ccccc2c1=O

[100, 102, 120]
